experiment.description: qHTS assay to test for compound auto fluorescence at 590 nm (red) in HEK293 cells (AID 720679)
details: red autofluorescence 540/590 nm; series mostly up to 91.3 µM
The source made the active and inactive calls. Calls come from the whole dose curve; as a rule, active = well fitted curve in the direction sought with a large enough effect in the repeat runs; inconclusive = weak or mixed curves; inactive = flat fitted curve, though single readings scatter.
result.type: outcome

molecule: O=C1CCCCCCCCCCC1
result.type: outcome
result: inactive

molecule: CCc1cccc(CC)c1N
result.type: outcome
result: inactive

molecule: Nc1cccc(C(F)(F)F)c1
result.type: outcome
result: inactive

molecule: OCC(CO)(CO)CO
result.type: outcome
result: inactive

molecule: OC[C@H]1O[C@@H](Oc2ccc(O)cc2)[C@H](O)[C@@H](O)[C@@H]1O
result.type: outcome
result: inactive

# outcome (molecule: CC1(C)[C@@H](O[C@H]2O[C@H](C(=O)O)[C@@H](O)[C@H](O)[C@H]2O[C@@H]2O[C@H](C(=O)O)[C@@H](O)[C@H](O)[C@H]2O)CC[C@]2(C)[C@H]3C(=O)C=C4[C@@H]5C[C@@](C)(C(=O)O)CC[C@]5(C)CC[C@@]4(C)[C@]3(C)CC[C@@H]12 ) is inactive

Recorded result, OC1CCCCC1 , outcome: inactive

Short answer for O=C1C(N(CO)C(=O)NCO)N(CO)C(=O)N1CO (stereo unspecified) : outcome was inactive

// outcome lookup, molecule = O=C(O)Cc1c[nH]c2ccccc12 , result: inactive

For this molecule ( CCOC(=O)CC(=O)OCC ), measured outcome is inactive

Entry under test: CC(C=O)Cc1ccc(C(C)(C)C)cc1 (stereo unspecified) . Its outcome was inactive

----------
experiment.description: qHTS assay to test for compound auto fluorescence at 590 nm (red) in HEK293 cells (AID 720679)
details: red autofluorescence 540/590 nm; series mostly up to 91.3 µM
Active and inactive are the calls of the source. Calls follow the shape of the dose curve; as a rule, active = well fitted curve in the direction sought with a large enough effect in the repeat runs; inconclusive = weak or mixed curves; inactive = flat fitted curve, though single readings scatter.
result.type: outcome

Consider the following illustrative entries.
compound.string: COc1ccc([C@@H]2CC(=O)c3c(O)cc(O[C@@H]4O[C@H](CO[C@@H]5O[C@@H](C)[C@H](O)[C@@H](O)[C@H]5O)[C@@H](O)[C@H](O)[C@H]4O)cc3O2)cc1OC
result.type: outcome
result: inactive
//
compound.string: OCc1ccc(Cl)cc1Cl
result.type: outcome
result: inactive
//
compound.string: O=C(Cl)c1ccc(C(=O)Cl)cc1
result.type: outcome
result: inactive
//
compound.string: CS(=O)(=O)c1ccc(Cl)cc1
result.type: outcome
result: inactive

get_value(item= CC(=O)Nc1ccc(CC(=O)O)cc1 , readout=outcome) returns inactive

# compound CCCCCCCC(=O)O ; its outcome = inactive

----------
experiment.description: qHTS assay to identify small molecule antagonists of the estrogen receptor alpha (ER-alpha) signaling pathway - cell viability counter screen (AID 743074);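 note: HEK293 cells carrying ER-alpha-UAS-bla reporter stimulated with 17beta-estradiol; nearly all actives have a fitted effect of over 45% in size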
details: ERalpha-bla HEK293 viability, CellTiter-Glo luminescence, 18 h; series mostly up to 69.4 µM
Results filed as inconclusive are left out. Activity calls are given as the source filed them. Calls follow the shape of the full dose curve.
result.type: outcome

Solved entries:
compound: CCCN(CCC)C(=O)SCC
result.type: outcome
result: inactive
--
compound: O=C(NCC1CCCCN1)c1cc(OCC(F)(F)F)ccc1OCC(F)(F)F (stereo not drawn)
result.type: outcome
result: inactive
--
compound: O=[N+]([O-])c1cc(C(F)(F)F)ccc1Cl
result.type: outcome
result: inactive
--
compound: CC/C(C)=N/O
result.type: outcome
result: inactive
--
compound: CCc1cccc(O)c1
result.type: outcome
result: inactive
--
compound: Cc1cc(CC(=O)O)n(C)c1C(=O)c1ccc(Cl)cc1
result.type: outcome
result: inactive
--
compound: CN1CCCC1=O
result.type: outcome
result: inactive

outcome reported for this compound Cc1ccc(C(C)C)cc1 : inactive
